# ASSAY METHOD TEXT: Biliary excretion and bile flow after i.v. TFA-IOP (100 umol/kg) or IOP (100 in text, 104 umol/kg in tables) in rats
# MEASUREMENT CONDITIONS: rat, bile, iv, 100 umol/kg
Structures can show the parent of a compound that is named as a salt.
VALUE KIND: concentration at 35 min (µM)
One number for each entry, in µM.

(Q) Quick one: give measured concentration at 35 min for CCC(Cc1c(I)cc(I)c(N)c1I)C(=O)O (centres unmarked) [IOP, iopanoic acid, reference compound]
(A) 9850

Moving on to another compound below.
(Q) Quick one: give measured concentration at 35 min for CCC(Cc1c(I)cc(I)c(NC(=O)C(F)(F)F)c1I)C(=O)O (centres unmarked) [TFA-IOP, N-trifluoroacetyl-iopanoic acid]
(A) 7800

====

# ASSAY METHOD TEXT: Biliary excretion and bile flow after i.v. TFA-IOP (100 umol/kg) or IOP (100 in text, 104 umol/kg in tables) in rats
# MEASUREMENT CONDITIONS: rat, in vivo, iv, 100 umol/kg, Percentage of dose in bile sample, 40-50 min
Structures can show the parent of a compound that is named as a salt.
VALUE KIND: dose excreted at 50 min
// return the numeric value with its unit appended

(Q) Quick one: give measured dose excreted at 50 min for CCC(Cc1c(I)cc(I)c(NC(=O)C(F)(F)F)c1I)C(=O)O (centres unmarked) [TFA-IOP, N-trifluoroacetyl-iopanoic acid]
(A) 5.35%

Moving on to another compound below.
(Q) Quick one: give measured dose excreted at 50 min for CCC(Cc1c(I)cc(I)c(N)c1I)C(=O)O (centres unmarked) [IOP, iopanoic acid, reference compound]
(A) 2.66%

====

Would you kindly list dose excreted at 20 min for each of these compounds?
# ASSAY METHOD TEXT: Biliary excretion and bile flow after i.v. TFA-IOP (100 umol/kg) or IOP (100 in text, 104 umol/kg in tables) in rats
# MEASUREMENT CONDITIONS: rat, in vivo, iv, 100 umol/kg, Percentage of dose running total in bile, through 10-20 min
# Procedure: Tissues examined included liver, spleen, upper GI, lower GI, kidney, lung and heart. The length of each study was 90 minutes, during which time bile, urine and plasma samples were taken to monitor uptake and excretion. NMR relaxation rates for liver and plasma were also examined to note whether uptake of either compound might possible alter these parameters.
Counter-ions that a name gives are not always drawn.
Numbers only, in %.

(Q) Quick one: give measured dose excreted at 20 min for CCC(Cc1c(I)cc(I)c(NC(=O)C(F)(F)F)c1I)C(=O)O (centres unmarked) [TFA-IOP, N-trifluoroacetyl-iopanoic acid]
(A) 8

Further cases:
(Q) Quick one: give measured dose excreted at 20 min for CCC(Cc1c(I)cc(I)c(N)c1I)C(=O)O (centres unmarked) [IOP, iopanoic acid, reference compound]
(A) 2.3

====

# ASSAY METHOD TEXT: Biliary excretion and bile flow after i.v. TFA-IOP (100 umol/kg) or IOP (100 in text, 104 umol/kg in tables) in rats
# MEASUREMENT CONDITIONS: rat, bile, iv, 100 umol/kg
Structures can show the parent of a compound that is named as a salt.
Would you kindly list concentration at 0.25 h for each of these molecules?
Answers are plain numbers, in µM.

(Q) Quick one: give measured concentration at 0.25 h for CCC(Cc1c(I)cc(I)c(N)c1I)C(=O)O (centres unmarked) [IOP, iopanoic acid, reference compound]
(A) 8660

Moving on to another molecule below.
(Q) Quick one: give measured concentration at 0.25 h for CCC(Cc1c(I)cc(I)c(NC(=O)C(F)(F)F)c1I)C(=O)O (centres unmarked) [TFA-IOP, N-trifluoroacetyl-iopanoic acid]
(A) 5780
